System: IFNγ-induced NO production in RAW 264.7 cells
Test: Nitric Oxide Suppression Assay (IFNγ-induced NO, Griess nitrite readout)
Format: cell-based, mouse
Settings: Table 2; ratio to RTA402
RECORDED ENDPOINT: Avg NO IC50 Relative to RTA402 (fold)

>>> measured_result("C[C@@H]1[C@H]2[C@H]3C(=O)C=C4[C@@]5(C)C=C(C#N)C(=O)C(C)(C)[C@@H]5CC[C@@]4(C)[C@]3(C)CC[C@@]2(N2CCC2=O)CC[C@H]1C")
5.91

(P) C[C@@H]1[C@H]2[C@H]3C(=O)C=C4[C@@]5(C)C=C(C#N)C(=O)C(C)(C)[C@@H]5CC[C@@]4(C)[C@]3(C)CC[C@@]2(CN)CC[C@H]1C
(Q) C[C@@H]1[C@H]2[C@H]3C(=O)C=C4[C@@]5(C)C=C(C#N)C(=O)C(C)(C)[C@@H]5CC[C@@]4(C)[C@]3(C)CC[C@@]2(NC(=O)C(C)(F)F)CC[C@H]1C
INPUT: Hey, between P and Q which has a smaller measured Avg NO IC50 Relative to RTA402 (fold)? Write down the label attached to your selection.
OUTPUT: Q
